Source listed as patent US20170150719A1.

Reported values of Test I rating (disease control) for individual entries
Tested on: Blumeria graminis f. sp. tritici
Assay Protocol: Test I: wheat powdery mildew, preventive spray on wheat seedlings, visual disease rating
Condition Summary: wheat powdery mildew; 100 = 100% disease control, 0 = no disease control relative to the controls

- Compound: "COc1ccc(-c2c(C)nn(C)c2Oc2ccc(C#N)cc2Cl)c(Cl)c1"
  Test I rating (disease control) [%]: 91
- Compound: "Cc1nn(C)c(C(O)c2ccc(Cl)cc2F)c1-c1ccc(F)cc1Cl (racemic)"
  Test I rating (disease control) [%]: 48
- Compound: "Cc1nn(C)c(Nc2ccc(F)cc2I)c1-c1ccc(F)cc1F"
  Test I rating (disease control) [%]: 100
- Compound: "Cc1nn(C)c(Nc2ccc(F)cc2Cl)c1-c1ccc(F)cc1F"
  Test I rating (disease control) [%]: 100
- Compound: "COc1cc(F)c(Nc2c(-c3c(F)cc(F)cc3F)c(C)nn2C)c(F)c1"
  Test I rating (disease control) [%]: 91
- Compound: "Cc1nn(C)c(Nc2c(F)cc(Cl)cc2F)c1-c1ccc(Cl)cc1Cl"
  Test I rating (disease control) [%]: 99
- Compound: "COc1cc(F)c(-c2c(C)nn(C)c2Oc2c(F)cccc2F)c(F)c1"
  Test I rating (disease control) [%]: 99
- Compound: "Cc1nn(C)c(Nc2c(Cl)cc(F)cc2Cl)c1-c1ccc(Cl)cc1Cl"
  Test I rating (disease control) [%]: 43
- Compound: "CCOc1ccc(Nc2c(-c3ccc(F)cc3Cl)c(C)nn2C)c(Cl)c1"
  Test I rating (disease control) [%]: 99
